Value source: BigSolDB 2.1

# particulars: in isobutanol, 336.15 K
assay metric: solubility (mole fraction)
Keep it simple and answer with nothing but the number.

### Prompt Would you kindly share the measured solubility (mole fraction) for O=C(O)c1cccc(C(=O)O)c1 ?
### Response 0.0055

###

# particulars: in isobutanol, 355.05 K
assay metric: solubility (mole fraction)
Keep it simple and answer with nothing but the number.

### Prompt Would you kindly share the measured solubility (mole fraction) for O=C(O)c1cccc(C(=O)O)c1 ?
### Response 0.0092

###

# particulars: in tert-butanol, 318.35 K
assay metric: solubility (mole fraction)
Keep it simple and answer with nothing but the number.

### Prompt Would you kindly share the measured solubility (mole fraction) for O=C(O)c1cccc(C(=O)O)c1 ?
### Response 0.0073

###

# particulars: in sec-butanol, 317.65 K
assay metric: solubility (mole fraction)
Keep it simple and answer with nothing but the number.

### Prompt Would you kindly share the measured solubility (mole fraction) for O=C(O)c1cccc(C(=O)O)c1 ?
### Response 0.0057

###

# particulars: in tert-butanol, 303.65 K
assay metric: solubility (mole fraction)
Keep it simple and answer with nothing but the number.

### Prompt Would you kindly share the measured solubility (mole fraction) for O=C(O)c1cccc(C(=O)O)c1 ?
### Response 0.0026

###

# particulars: in tert-butanol, 307.95 K
assay metric: solubility (mole fraction)
Keep it simple and answer with nothing but the number.

### Prompt Would you kindly share the measured solubility (mole fraction) for O=C(O)c1cccc(C(=O)O)c1 ?
### Response 0.0038

###

# particulars: in n-propanol, 337.95 K
assay metric: solubility (mole fraction)
Keep it simple and answer with nothing but the number.

### Prompt Would you kindly share the measured solubility (mole fraction) for O=C(O)c1cccc(C(=O)O)c1 ?
### Response 0.0091

###

# particulars: in sec-butanol, 326.25 K
assay metric: solubility (mole fraction)
Keep it simple and answer with nothing but the number.

### Prompt Would you kindly share the measured solubility (mole fraction) for O=C(O)c1cccc(C(=O)O)c1 ?
### Response 0.0085

###

# particulars: in n-propanol, 305.65 K
assay metric: solubility (mole fraction)

### Prompt Would you kindly share the measured solubility (mole fraction) for O=C(O)c1cccc(C(=O)O)c1 ?
### Response 0.0039

###

# particulars: in n-propanol, 345.95 K
assay metric: solubility (mole fraction)
Keep it simple and answer with nothing but the number.

### Prompt Would you kindly share the measured solubility (mole fraction) for O=C(O)c1cccc(C(=O)O)c1 ?
### Response 0.0113

###

# particulars: in n-propanol, 340.15 K
assay metric: solubility (mole fraction)
Keep it simple and answer with nothing but the number.

### Prompt Would you kindly share the measured solubility (mole fraction) for O=C(O)c1cccc(C(=O)O)c1 ?
### Response 0.0093

###

# particulars: in methanol, 323.15 K
assay metric: solubility (mole fraction)
Keep it simple and answer with nothing but the number.

### Prompt Would you kindly share the measured solubility (mole fraction) for O=C(O)c1cccc(C(=O)O)c1 ?
### Response 0.0064

###

# particulars: in sec-butanol, 339.35 K
assay metric: solubility (mole fraction)
Keep it simple and answer with nothing but the number.

### Prompt Would you kindly share the measured solubility (mole fraction) for O=C(O)c1cccc(C(=O)O)c1 ?
### Response 0.0117

###

# particulars: in isobutanol, 348.95 K
assay metric: solubility (mole fraction)

### Prompt Would you kindly share the measured solubility (mole fraction) for O=C(O)c1cccc(C(=O)O)c1 ?
### Response 0.0079

###

# particulars: in n-butanol, 324.45 K
assay metric: solubility (mole fraction)

### Prompt Would you kindly share the measured solubility (mole fraction) for O=C(O)c1cccc(C(=O)O)c1 ?
### Response 0.0057

###

# particulars: in ethanol, 331.75 K
assay metric: solubility (mole fraction)

### Prompt Would you kindly share the measured solubility (mole fraction) for O=C(O)c1cccc(C(=O)O)c1 ?
### Response 0.0089

###

# particulars: in n-propanol, 326.65 K
assay metric: solubility (mole fraction)
Keep it simple and answer with nothing but the number.

### Prompt Would you kindly share the measured solubility (mole fraction) for O=C(O)c1cccc(C(=O)O)c1 ?
### Response 0.0064

###

# particulars: in methanol, 305.25 K
assay metric: solubility (mole fraction)
Keep it simple and answer with nothing but the number.

### Prompt Would you kindly share the measured solubility (mole fraction) for O=C(O)c1cccc(C(=O)O)c1 ?
### Response 0.0044

###

# particulars: in isopropanol, 310.95 K
assay metric: solubility (mole fraction)
Keep it simple and answer with nothing but the number.

### Prompt Would you kindly share the measured solubility (mole fraction) for O=C(O)c1cccc(C(=O)O)c1 ?
### Response 0.0057

###

# particulars: in tert-butanol, 321.15 K
assay metric: solubility (mole fraction)

### Prompt Would you kindly share the measured solubility (mole fraction) for O=C(O)c1cccc(C(=O)O)c1 ?
### Response 0.0091

###

# particulars: in isopropanol, 334.35 K
assay metric: solubility (mole fraction)
Keep it simple and answer with nothing but the number.

### Prompt Would you kindly share the measured solubility (mole fraction) for O=C(O)c1cccc(C(=O)O)c1 ?
### Response 0.0103

###

# particulars: in isopropanol, 337.55 K
assay metric: solubility (mole fraction)
Keep it simple and answer with nothing but the number.

### Prompt Would you kindly share the measured solubility (mole fraction) for O=C(O)c1cccc(C(=O)O)c1 ?
### Response 0.0111

###

# particulars: in isobutanol, 343.05 K
assay metric: solubility (mole fraction)
Keep it simple and answer with nothing but the number.

### Prompt Would you kindly share the measured solubility (mole fraction) for O=C(O)c1cccc(C(=O)O)c1 ?
### Response 0.0066

###

# particulars: in isopropanol, 326.95 K
assay metric: solubility (mole fraction)
Keep it simple and answer with nothing but the number.

### Prompt Would you kindly share the measured solubility (mole fraction) for O=C(O)c1cccc(C(=O)O)c1 ?
### Response 0.0086

###

# particulars: in n-butanol, 314.35 K
assay metric: solubility (mole fraction)

### Prompt Would you kindly share the measured solubility (mole fraction) for O=C(O)c1cccc(C(=O)O)c1 ?
### Response 0.0044

###

# particulars: in ethanol, 294.35 K
assay metric: solubility (mole fraction)
Keep it simple and answer with nothing but the number.

### Prompt Would you kindly share the measured solubility (mole fraction) for O=C(O)c1cccc(C(=O)O)c1 ?
### Response 0.004

###

# particulars: in n-butanol, 347.95 K
assay metric: solubility (mole fraction)

### Prompt Would you kindly share the measured solubility (mole fraction) for O=C(O)c1cccc(C(=O)O)c1 ?
### Response 0.0104

###

# particulars: in n-butanol, 309.65 K
assay metric: solubility (mole fraction)
Keep it simple and answer with nothing but the number.

### Prompt Would you kindly share the measured solubility (mole fraction) for O=C(O)c1cccc(C(=O)O)c1 ?
### Response 0.0039

###

# particulars: in isobutanol, 323.55 K
assay metric: solubility (mole fraction)
Keep it simple and answer with nothing but the number.

### Prompt Would you kindly share the measured solubility (mole fraction) for O=C(O)c1cccc(C(=O)O)c1 ?
### Response 0.0033

###

# particulars: in ethanol, 326.75 K
assay metric: solubility (mole fraction)
Keep it simple and answer with nothing but the number.

### Prompt Would you kindly share the measured solubility (mole fraction) for O=C(O)c1cccc(C(=O)O)c1 ?
### Response 0.0078

###

# particulars: in isopropanol, 316.45 K
assay metric: solubility (mole fraction)
Keep it simple and answer with nothing but the number.

### Prompt Would you kindly share the measured solubility (mole fraction) for O=C(O)c1cccc(C(=O)O)c1 ?
### Response 0.0063

###

# particulars: in ethanol, 298.15 K
assay metric: solubility (mole fraction)
Keep it simple and answer with nothing but the number.

### Prompt Would you kindly share the measured solubility (mole fraction) for O=C(O)c1cccc(C(=O)O)c1 ?
### Response 0.0043

###

# particulars: in isopropanol, 304.65 K
assay metric: solubility (mole fraction)
Keep it simple and answer with nothing but the number.

### Prompt Would you kindly share the measured solubility (mole fraction) for O=C(O)c1cccc(C(=O)O)c1 ?
### Response 0.0046

###

# particulars: in n-propanol, 311.65 K
assay metric: solubility (mole fraction)

### Prompt Would you kindly share the measured solubility (mole fraction) for O=C(O)c1cccc(C(=O)O)c1 ?
### Response 0.0043

###

# particulars: in n-propanol, 303.75 K
assay metric: solubility (mole fraction)

### Prompt Would you kindly share the measured solubility (mole fraction) for O=C(O)c1cccc(C(=O)O)c1 ?
### Response 0.0033

###

# particulars: in tert-butanol, 324.55 K
assay metric: solubility (mole fraction)

### Prompt Would you kindly share the measured solubility (mole fraction) for O=C(O)c1cccc(C(=O)O)c1 ?
### Response 0.0106

###

# particulars: in methanol, 295.65 K
assay metric: solubility (mole fraction)
Keep it simple and answer with nothing but the number.

### Prompt Would you kindly share the measured solubility (mole fraction) for O=C(O)c1cccc(C(=O)O)c1 ?
### Response 0.0032
